assay.target: Glycogen phosphorylase, liver form (Rattus norvegicus)
measurement.notes: Inhibition of glycogen phosphorylase a in Wistar rat hepatocytes assessed as effect on conversion of GPa to GPb forms by measuring GPa level at 2 uM after 30 mins relative to 5 mM glucose
Format: cell-based
Set-up: scale not given: the % may be the effect or the level left
reported.conditions: Hepatocyte
experimental.readout: Activity (%)

[[record]]
record_smiles = "O=C(COc1ccc(-c2ccccc2)cc1)N[C@@H]1O[C@H](CO)[C@@H](O)[C@H](O)[C@H]1O"
test_result = 84.5

[[record]]
record_smiles = "O=C(/C=C/c1ccc(-c2ccccc2)cc1)N[C@@H]1O[C@H](CO)[C@@H](O)[C@H](O)[C@H]1O"
test_result = 89.4

[[record]]
record_smiles = "CC(C)c1ccc(/C=C/C(=O)N[C@@H]2O[C@H](CO)[C@@H](O)[C@H](O)[C@H]2O)cc1"
test_result = 105

[[record]]
record_smiles = "O=C(CCCc1ccc2c(c1)CCCC2)N[C@@H]1O[C@H](CO)[C@@H](O)[C@H](O)[C@H]1O"
test_result = 93


* * *

measurement.notes: Octanol water partition coefficient, logP of the compound
Type: physicochemical
experimental.readout: logP

[[record]]
record_smiles = "COc1ccc(/C=C/C(=O)N[C@@H]2O[C@H](CO)[C@@H](O)[C@H](O)[C@H]2O)c(O)c1"
test_result = -0.958


(A) CCc1ccc([C@H](C)CC(=O)N[C@@H]2O[C@H](CO)[C@@H](O)[C@H](O)[C@H]2O)cc1
(B) O=C(CCNC(=O)c1ccc(F)c(F)c1)N[C@@H]1O[C@H](CO)[C@@H](O)[C@H](O)[C@H]1O
(C) CC(C)(C)c1ccc(/C=C/C(=O)N[C@@H]2O[C@H](CO)[C@@H](O)[C@H](O)[C@H]2O)cc1
Task: Ascending by logP, please. Ranked list of labels, please, in the requested order.
Output: B, A, C

* * *

measurement.notes: Permeability in human Caco2 cells
Format: ADME, cell-based
reported.conditions: Caco-2, read-out: permeability
experimental.readout: Papp (nm/s)

Solved cases (3 shown):
[[record]]
record_smiles = "O=C(CCc1ncc(-c2ccccc2)o1)N[C@@H]1O[C@H](CO)[C@@H](O)[C@H](O)[C@H]1O"
experimental_readout = "Papp"
test_result = 36.5

[[record]]
record_smiles = "O=C(N[C@@H]1O[C@H](CO)[C@@H](O)[C@H](O)[C@H]1O)C1=Cc2cc(Cl)ccc2OC1"
experimental_readout = "Papp"
test_result = 94

[[record]]
record_smiles = "CC[C@H](CC(=O)N[C@@H]1O[C@H](CO)[C@@H](O)[C@H](O)[C@H]1O)c1ccc(C)c(C)c1"
experimental_readout = "Papp"
test_result = 76.7


(a) CC(C)c1ccc([C@@H](C)CC(=O)N[C@@H]2O[C@H](CO)[C@@H](O)[C@H](O)[C@H]2O)cc1
(b) COC(=O)c1ccc(/C=C/C(=O)N[C@@H]2O[C@H](CO)[C@@H](O)[C@H](O)[C@H]2O)cc1
Task: Which entry shows the lesser value of Papp here, a or b ? Answer by quoting the chosen item's label.
Output: b

(A) O=C(/C=C/c1ccc(-c2ccccc2)cc1)N[C@@H]1O[C@H](CO)[C@@H](O)[C@H](O)[C@H]1O
(B) N[C@@H](Cc1c[nH]c2ccccc12)C(=O)N[C@@H]1O[C@H](CO)[C@@H](O)[C@H](O)[C@H]1O
(C) O=C(CCNC(=O)c1ccc(F)c(F)c1)N[C@@H]1O[C@H](CO)[C@@H](O)[C@H](O)[C@H]1O
Task: Arrange the 3 entries by Papp so the values rise. List the labels according to the requested ordering.
Output: B, C, A

(I) O=C(CCCc1ccc2c(c1)CCCC2)N[C@@H]1O[C@H](CO)[C@@H](O)[C@H](O)[C@H]1O
(II) N[C@H](Cc1c[nH]c2ccccc12)C(=O)N[C@@H]1O[C@H](CO)[C@@H](O)[C@H](O)[C@H]1O
Task: Between these two entries, I and II , state which has the higher Papp. Identify your selection by its label.
Output: I
(I: 95.1 nm/s, II: 4.7 nm/s)
